We begin with a simple list: items and their reported Bone uptake.
Test system: S180-bearing mice
measurement-description: Bio-distribution in tumor-bearing mice
Format: in vivo
particulars: S180-bearing mice, tail vein, 60 min
Procedure: The labeled solution (0.1 mL, 74 KBq) is injected into mice through the tail vein, and the injection time is recorded. Then the mice were killed by cervical dislocation at different time phases (30 minutes, 60 minutes, and 120 minutes), five mice for each time phase, and the organs of interest such as heart, liver, lung, kidney, spleen, stomach, muscle, blood and tumor are taken out after dissection, and measured with a γ-counter for the radioactive count of each organ. […]

molecule	measurement-units	Bone uptake
O=C(CCC[N+]#[C][99Tc-5]([C]#[N+]CCCC(=O)NC1C(O)OC(CO)C(O)C1O)([C]#[N+]CCCC(=O)NC1C(O)OC(CO)C(O)C1O)([C]#[N+]CCCC(=O)NC1C(O)OC(CO)C(O)C1O)([C]#[N+]CCCC(=O)NC1C(O)OC(CO)C(O)C1O)[C]#[N+]CCCC(=O)NC1C(O)OC(CO)C(O)C1O)NC1C(O)OC(CO)C(O)C1O (stereo not shown) [[^99mTc-(CN3DG)6]^+]	% ID/g	0.15
O=C(CC[N+]#[C][99Tc-5]([C]#[N+]CCC(=O)NC1C(O)OC(CO)C(O)C1O)([C]#[N+]CCC(=O)NC1C(O)OC(CO)C(O)C1O)([C]#[N+]CCC(=O)NC1C(O)OC(CO)C(O)C1O)([C]#[N+]CCC(=O)NC1C(O)OC(CO)C(O)C1O)[C]#[N+]CCC(=O)NC1C(O)OC(CO)C(O)C1O)NC1C(O)OC(CO)C(O)C1O (stereo not shown) [[^99mTc-(CN2DG)6]^+]	% ID/g	0.10
O=C(CCCCC[N+]#[C][99Tc-5]([C]#[N+]CCCCCC(=O)NC1C(O)OC(CO)C(O)C1O)([C]#[N+]CCCCCC(=O)NC1C(O)OC(CO)C(O)C1O)([C]#[N+]CCCCCC(=O)NC1C(O)OC(CO)C(O)C1O)([C]#[N+]CCCCCC(=O)NC1C(O)OC(CO)C(O)C1O)[C]#[N+]CCCCCC(=O)NC1C(O)OC(CO)C(O)C1O)NC1C(O)OC(CO)C(O)C1O (stereo not shown) [[^99mTc-(CN5DG)6]^+]	% ID/g	0.41
O=C(CCCC[N+]#[C][99Tc-5]([C]#[N+]CCCCC(=O)NC1C(O)OC(CO)C(O)C1O)([C]#[N+]CCCCC(=O)NC1C(O)OC(CO)C(O)C1O)([C]#[N+]CCCCC(=O)NC1C(O)OC(CO)C(O)C1O)([C]#[N+]CCCCC(=O)NC1C(O)OC(CO)C(O)C1O)[C]#[N+]CCCCC(=O)NC1C(O)OC(CO)C(O)C1O)NC1C(O)OC(CO)C(O)C1O (stereo not shown) [[^99mTc-(CN4DG)6]^+]	% ID/g	0.19

----------
System: S180-bearing mice
measurement-description: Bio-distribution in tumor-bearing mice
Assay type: in vivo
particulars: S180-bearing mice, tail vein, 60 min
Protocol: The labeled solution (0.1 mL, 74 KBq) is injected into mice through the tail vein, and the injection time is recorded. Then the mice were killed by cervical dislocation at different time phases (30 minutes, 60 minutes, and 120 minutes), five mice for each time phase, and the organs of interest such as heart, liver, lung, kidney, spleen, stomach, muscle, blood and tumor are taken out after dissection, and measured with a γ-counter for the radioactive count of each organ. […]
reported-property: Tumor/blood ratio

molecule	readout-number
O=C(CCC[N+]#[C][99Tc-5]([C]#[N+]CCCC(=O)NC1C(O)OC(CO)C(O)C1O)([C]#[N+]CCCC(=O)NC1C(O)OC(CO)C(O)C1O)([C]#[N+]CCCC(=O)NC1C(O)OC(CO)C(O)C1O)([C]#[N+]CCCC(=O)NC1C(O)OC(CO)C(O)C1O)[C]#[N+]CCCC(=O)NC1C(O)OC(CO)C(O)C1O)NC1C(O)OC(CO)C(O)C1O (stereo not shown) [[^99mTc-(CN3DG)6]^+]	8.33
O=C(CCCCC[N+]#[C][99Tc-5]([C]#[N+]CCCCCC(=O)NC1C(O)OC(CO)C(O)C1O)([C]#[N+]CCCCCC(=O)NC1C(O)OC(CO)C(O)C1O)([C]#[N+]CCCCCC(=O)NC1C(O)OC(CO)C(O)C1O)([C]#[N+]CCCCCC(=O)NC1C(O)OC(CO)C(O)C1O)[C]#[N+]CCCCCC(=O)NC1C(O)OC(CO)C(O)C1O)NC1C(O)OC(CO)C(O)C1O (stereo not shown) [[^99mTc-(CN5DG)6]^+]	1.94
O=C(CCCC[N+]#[C][99Tc-5]([C]#[N+]CCCCC(=O)NC1C(O)OC(CO)C(O)C1O)([C]#[N+]CCCCC(=O)NC1C(O)OC(CO)C(O)C1O)([C]#[N+]CCCCC(=O)NC1C(O)OC(CO)C(O)C1O)([C]#[N+]CCCCC(=O)NC1C(O)OC(CO)C(O)C1O)[C]#[N+]CCCCC(=O)NC1C(O)OC(CO)C(O)C1O)NC1C(O)OC(CO)C(O)C1O (stereo not shown) [[^99mTc-(CN4DG)6]^+]	2.93
O=C(CC[N+]#[C][99Tc-5]([C]#[N+]CCC(=O)NC1C(O)OC(CO)C(O)C1O)([C]#[N+]CCC(=O)NC1C(O)OC(CO)C(O)C1O)([C]#[N+]CCC(=O)NC1C(O)OC(CO)C(O)C1O)([C]#[N+]CCC(=O)NC1C(O)OC(CO)C(O)C1O)[C]#[N+]CCC(=O)NC1C(O)OC(CO)C(O)C1O)NC1C(O)OC(CO)C(O)C1O (stereo not shown) [[^99mTc-(CN2DG)6]^+]	2.78

----------
Test system: S180-bearing mice
measurement-description: Bio-distribution in tumor-bearing mice
Type: in vivo
particulars: S180-bearing mice, tail vein, 30 min
reported-property: Kidney uptake (% ID/g)

compound	measurement-units	readout-number
O=C(CCCCC[N+]#[C][99Tc-5]([C]#[N+]CCCCCC(=O)NC1C(O)OC(CO)C(O)C1O)([C]#[N+]CCCCCC(=O)NC1C(O)OC(CO)C(O)C1O)([C]#[N+]CCCCCC(=O)NC1C(O)OC(CO)C(O)C1O)([C]#[N+]CCCCCC(=O)NC1C(O)OC(CO)C(O)C1O)[C]#[N+]CCCCCC(=O)NC1C(O)OC(CO)C(O)C1O)NC1C(O)OC(CO)C(O)C1O (stereo not shown) [[^99mTc-(CN5DG)6]^+]	% ID/g	4.69

----------
We begin with a simple list: items and their reported Small intestine uptake.
System: S180-bearing mice
measurement-description: Bio-distribution in tumor-bearing mice
Type: in vivo
particulars: S180-bearing mice, tail vein, 120 min

molecule	Small intestine uptake
O=C(CC[N+]#[C][99Tc-5]([C]#[N+]CCC(=O)NC1C(O)OC(CO)C(O)C1O)([C]#[N+]CCC(=O)NC1C(O)OC(CO)C(O)C1O)([C]#[N+]CCC(=O)NC1C(O)OC(CO)C(O)C1O)([C]#[N+]CCC(=O)NC1C(O)OC(CO)C(O)C1O)[C]#[N+]CCC(=O)NC1C(O)OC(CO)C(O)C1O)NC1C(O)OC(CO)C(O)C1O (stereo not shown) [[^99mTc-(CN2DG)6]^+]	0.12 ± 0.02 % ID/g
O=C(CCCC[N+]#[C][99Tc-5]([C]#[N+]CCCCC(=O)NC1C(O)OC(CO)C(O)C1O)([C]#[N+]CCCCC(=O)NC1C(O)OC(CO)C(O)C1O)([C]#[N+]CCCCC(=O)NC1C(O)OC(CO)C(O)C1O)([C]#[N+]CCCCC(=O)NC1C(O)OC(CO)C(O)C1O)[C]#[N+]CCCCC(=O)NC1C(O)OC(CO)C(O)C1O)NC1C(O)OC(CO)C(O)C1O (stereo not shown) [[^99mTc-(CN4DG)6]^+]	0.36 ± 0.21 % ID/g
O=C(CCCCC[N+]#[C][99Tc-5]([C]#[N+]CCCCCC(=O)NC1C(O)OC(CO)C(O)C1O)([C]#[N+]CCCCCC(=O)NC1C(O)OC(CO)C(O)C1O)([C]#[N+]CCCCCC(=O)NC1C(O)OC(CO)C(O)C1O)([C]#[N+]CCCCCC(=O)NC1C(O)OC(CO)C(O)C1O)[C]#[N+]CCCCCC(=O)NC1C(O)OC(CO)C(O)C1O)NC1C(O)OC(CO)C(O)C1O (stereo not shown) [[^99mTc-(CN5DG)6]^+]	0.22 ± 0.08 % ID/g
O=C(CCC[N+]#[C][99Tc-5]([C]#[N+]CCCC(=O)NC1C(O)OC(CO)C(O)C1O)([C]#[N+]CCCC(=O)NC1C(O)OC(CO)C(O)C1O)([C]#[N+]CCCC(=O)NC1C(O)OC(CO)C(O)C1O)([C]#[N+]CCCC(=O)NC1C(O)OC(CO)C(O)C1O)[C]#[N+]CCCC(=O)NC1C(O)OC(CO)C(O)C1O)NC1C(O)OC(CO)C(O)C1O (stereo not shown) [[^99mTc-(CN3DG)6]^+]	0.14 ± 0.06 % ID/g
